method description: Water solubility of peptides
Format: physicochemical
measurement parameters: from solid: 10 mg lyophilized peptide in 1.0 mL water, sonicated 30 min at room temperature, centrifuged 5 min 13,000 rpm; UV at 301 nm (ε 7800 M^−1 cm^−1)
Residues, ends and D or L forms follow the SMILES beside them. *: point of attachment. Fmoc = O=C(OCC1c2ccccc2-c2ccccc21)*
Form field: solubility thermodynamic at 30 min (one value per entry).
// return numeric value only (unit: µg/mL, not printed)

Guide cases for solubility thermodynamic at 30 min, answers given:
# molecule, units symbol, solubility thermodynamic at 30 min
data = [
    ("CC[C@H](C)[C@H](NC(=O)[C@H](C)NC(=O)[C@H](Cc1ccccc1)NC(=O)[C@H](Cc1ccccc1)NC(=O)OCC1c2ccccc2-c2ccccc21)C(=O)N[C@H](C(=O)N[C@@H](C)C(=O)NCC(=O)N[C@@H](CCCCN)C(N)=O)C(C)C [FmocFF-K3] (Fmoc-FFAIVAGK-NH2)", "µg/mL", 345),
    ("CC[C@H](C)[C@H](NC(=O)[C@H](CC(C)C)NC(=O)[C@H](Cc1ccccc1)NC(=O)[C@H](Cc1ccccc1)NC(=O)OCC1c2ccccc2-c2ccccc21)C(=O)N[C@H](C(=O)N[C@@H](C)C(=O)NCC(=O)N[C@@H](CCCCN)C(N)=O)C(C)C [FmocFF-K2] (Fmoc-FFLIVAGK-NH2)", "µg/mL", 253),
]

Given the entry CC[C@H](C)[C@H](NC(=O)[C@H](Cc1ccccc1)NC(=O)[C@H](Cc1ccccc1)NC(=O)OCC1c2ccccc2-c2ccccc21)C(=O)N[C@@H](CC(C)C)C(=O)N[C@H](C(=O)N[C@@H](C)C(=O)NCC(=O)N[C@@H](CCCCN)C(N)=O)C(C)C [FmocFF-K1] (Fmoc-FFILVAGK-NH2) , report its measured solubility thermodynamic at 30 min.
508

// repeat for CC[C@H](C)[C@H](NC(=O)[C@H](C)NC(=O)OCC1c2ccccc2-c2ccccc21)C(=O)N[C@H](C(=O)N[C@@H](C)C(=O)NCC(=O)N[C@@H](CCCCN)C(N)=O)C(C)C [Fmoc-K3] (Fmoc-AIVAGK-NH2) and report
3210

// repeat for CC[C@H](C)[C@H](NC(=O)OCC1c2ccccc2-c2ccccc21)C(=O)N[C@@H](CC(C)C)C(=O)N[C@H](C(=O)N[C@@H](C)C(=O)NCC(=O)N[C@@H](CCCCN)C(N)=O)C(C)C [Fmoc-K1] (Fmoc-ILVAGK-NH2) and report
1240

// repeat for CC[C@H](C)[C@H](NC(=O)[C@H](CC(C)C)NC(=O)OCC1c2ccccc2-c2ccccc21)C(=O)N[C@H](C(=O)N[C@@H](C)C(=O)NCC(=O)N[C@@H](CCCCN)C(N)=O)C(C)C [Fmoc-K2] (Fmoc-LIVAGK-NH2) and report
2560
